Reference for the values: patent US20040092720A1

Counts/minute bound by entry:
- target_under_test: T1, recombinant human IL-6 (human, UniProt P05231 30-212, labeled with radioactive iodine)
- T1 construct: Labeled probe in solution, added to wells that carry the synthetic peptides; also called IL-6 ligand; Interleukin-6
- experimental_details: radioiodinated IL-6 on peptide array
Answer as a quantity: numeral, then unit.

* SSFYRLRFELRYRAERSK [Peptide C4] | 7620 counts/minute

Challenge: Recorded Counts/minute bound of SSFYRLRFELRYAAERSKTFT (alanine-scan variant of the domain III 21-mer) [Peptide C41] , please.
Response given: 6740 counts/minute

Challenge: Can you handle SSFYRLRFELRARAERSKTFT (alanine-scan variant of the domain III 21-mer) [Peptide C42] next?
Response given: 17500 counts/minute

Challenge: Can you handle SSFYRLRFELRYRAERSATFT (alanine-scan variant of the domain III 21-mer) [Peptide C37] next?
Response given: 7220 counts/minute

Challenge: Can you handle RRLLLRSV [Peptide A30] next?
Response given: 5970 counts/minute

Challenge: Can you handle LRYRAERSKTFT [Peptide C26] next?
Response given: 6380 counts/minute

Challenge: Can you handle SSFYRLRFALRYRAERSKTFT (alanine-scan variant of the domain III 21-mer) [Peptide C45] next?
Response given: 26800 counts/minute

Challenge: Can you handle AAGSHPSRW [Peptide A13] next?
Response given: 1520 counts/minute

Challenge: Can you handle AAGSHPSRWAGMGRRALLRSV (alanine-scan variant of the domain I 21-mer) [Peptide A39] next?
Response given: 5280 counts/minute

Challenge: Can you handle AAGSHPSRWAGMGRRLLLASV (alanine-scan variant of the domain I 21-mer) [Peptide A36] next?
Response given: 4900 counts/minute

Challenge: Can you handle HPSRWAGMGRRLLLRSV [Peptide A21] next?
Response given: 12000 counts/minute

Challenge: Can you handle PSRWAGMGRRLLLRSV [Peptide A22] next?
Response given: 11100 counts/minute

Challenge: Can you handle ELRYRAERSKTFT [Peptide C25] next?
Response given: 2200 counts/minute

Challenge: Can you handle PRSTPSL (also called PRSTPSL) [Peptide B15] next?
Response given: 985 counts/minute

Challenge: Can you handle PRSTPSATTKAVLLVRKFQNS (alanine-scan variant of the domain II 21-mer) [Peptide B47] next?
Response given: 8570 counts/minute
